Target: IRAK4 (Homo sapiens, UniProt Q9NWZ3)
Sequence (Q9NWZ3 whole entry): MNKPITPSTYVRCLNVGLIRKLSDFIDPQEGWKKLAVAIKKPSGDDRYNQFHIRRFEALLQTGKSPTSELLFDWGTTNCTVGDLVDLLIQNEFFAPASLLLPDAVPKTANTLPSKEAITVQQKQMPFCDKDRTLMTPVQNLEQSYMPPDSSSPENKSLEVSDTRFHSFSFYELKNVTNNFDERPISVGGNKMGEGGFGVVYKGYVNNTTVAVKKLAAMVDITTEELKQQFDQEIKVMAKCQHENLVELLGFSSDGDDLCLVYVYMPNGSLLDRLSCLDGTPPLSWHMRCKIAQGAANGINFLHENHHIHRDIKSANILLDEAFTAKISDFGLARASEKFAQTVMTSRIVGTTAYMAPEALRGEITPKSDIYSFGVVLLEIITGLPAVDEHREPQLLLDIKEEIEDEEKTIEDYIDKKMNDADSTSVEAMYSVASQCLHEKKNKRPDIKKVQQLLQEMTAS
Test: biochemical

| MOLECULE | TARGET OR TEST SYSTEM | OUTPUT UNIT | IC50 |
| --- | --- | --- | --- |
| Cc1cnc2c(NC(=O)c3cn4cc(C56COC(C)(C5)C6)nc4nc3OC3CCC3)cnn2c1 | IRAK4 (Homo sapiens, UniProt Q9NWZ3) | nM | 0.7 |
| CC(C)Oc1cc2nc([C@@]34CC[C@@H](C3)OC4)cn2cc1C(=O)Nc1cccc(C(F)F)n1 (single isomer, unassigned) | IRAK4 (Homo sapiens, UniProt Q9NWZ3) | nM | 0.1 |
| CC(C)Oc1nc2nc(C34COC(C)(C3)C4)cn2cc1C(=O)Nc1cccc(-c2cnn(C)c2)n1 | IRAK4 (Homo sapiens, UniProt Q9NWZ3) | nM | 0.1 |

* * *

Target: IRAK4 (Homo sapiens)
Test: biochemical
pIC50: −log10 of the molar value.
Mark MET for reported pIC50 of 9 or greater; mark NOT MET for anything smaller.

| COMPOUND | CLASSIFICATION |
| --- | --- |
| CC(C)Oc1nc2nc(C34COC(C3)C4)cn2cc1C(=O)Nc1cnn2cccnc12 | NOT MET |
| Cn1cccc(NC(=O)c2cn3cc(C45CCC(C)(CC4)OC5)nc3cc2OC2CCC2)c1=O | MET |
| COc1cc2nc(C3CCOCC3)cn2cc1C(=O)Nc1cccc(C(F)(F)F)c1C | NOT MET |
| CC12CC(c3cn4cc(C(=O)Nc5ccn(C(F)(F)F)n5)c(OC5CCC5)cc4n3)(CO1)C2 | NOT MET |
| CC(C)Oc1nc(C(=O)Nc2ccnc3ccnn23)cn2cc(C34COC(C)(C3)C4)nc12 | NOT MET |
| COc1cc2nc(C3CCOCC3)cn2cc1C(=O)Nc1csnc1C | NOT MET |
| COc1cc2nc(C3CCOCC3)cn2cc1C(=O)Nc1cccc(C)c1 | NOT MET |
| CC(C)Oc1cc2nc(C34COC(C)(C3)C4)cn2cc1C(=O)Nc1ccccn1 | NOT MET |
| COc1nc(C(=O)Nc2ccn(C(F)F)n2)cn2cc(C3CCOCC3)nc12 | NOT MET |
| CC(C)Oc1nc(C(=O)Nc2ccn(C)n2)cn2cc([C@]34CC[C@](C)(C3)OC4)nc12 (single isomer, unassigned) | NOT MET |
| COc1cc2nc(C3CCOCC3)cn2cc1C(=O)Nc1cccc(C(F)(F)F)n1 | NOT MET |
| CC(C)Oc1nc2nc([C@]34CC[C@](C)(C3)OC4)cn2cc1C(=O)Nc1cccn(C(F)F)c1=O (single isomer, unassigned) | MET |
| CC(C)Oc1cc2nc(C34CCC(C)(CC3)OC4)cn2cc1C(=O)Nc1cnn2cccnc12 | MET |
| CC(C)Oc1cc2nc(C34COC(C)(C3)C4)cn2cc1C(=O)Nc1cccnc1OC(F)F | NOT MET |
| Cc1nocc1NC(=O)c1cn2cc(C34CCC(C)(C3)OC4)nc2cc1OC(C)C (stereo not shown) | NOT MET |
| CC(C)Oc1cc2nc(C34CCC(C)(C3)OC4)cn2cc1C(=O)Nc1cccc(C#N)n1 (stereo not shown) | MET |
| CC12CC(c3cn4cc(C(=O)Nc5ccn(C(F)F)n5)c(OC5CCC5)cc4n3)(CO1)C2 | NOT MET |
| CC(C)Oc1nc2nc([C@]34CC[C@](C)(C3)OC4)cn2cc1C(=O)Nc1cccc(C(F)F)n1 (single isomer, unassigned) | MET |
